Source listed as the supplement of paper PMC11061612.

test system: HPAF-II (Pancreatic Carcinoma); test: Bliss excess, mean over the matrix (fraction); higher = more synergy;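 note: after 72 h of two-drug dosing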
parameter-measured: Bliss excess
# answer = number (no unit)

Prompt: Param item = O=C(c1cc(Cc2n[nH]c(=O)c3ccccc23)ccc1F)N1CCN(C(=O)C2CC2)CC1 [Olaparib] + COc1nnc2ccc(N3CCC(c4ccc(OCCN5CCN(C)C(=O)[C@H]5C)cc4)CC3)nn12 [AZD5153] (first compound max 10 µM, 7x7, partner max 1 µM) ; retrieve measured Bliss excess.
Completion: 0.0018

Prompt: Now this one: Cn1cnc2c(F)c(Nc3ccc(Br)cc3Cl)c(C(=O)NOCCO)cc21 [Selumetinib] + C[C@@H]1COCCN1C2=NC(=NC(=C2)C3(CC3)[S@](=N)(=O)C)C4=C5C=CNC5=NC=C4 [AZD6738] (first compound max 10 µM, 7x7, partner max 10 µM)
Completion: 0.0119

Prompt: Now this one: Cc1c2c(nn1C)CSCc1cc(n(C)n1)CSc1cc(c3ccccc3c1)OCCCc1c(C(=O)O)n(C)c3c-2c(Cl)ccc13 [AZD5991] + CC(=O)O[C@H]1C(=O)[C@@]2(C)[C@H]([C@H](OC(=O)c3ccccc3)[C@]3(O)C[C@H](OC(=O)[C@H](O)[C@@H](NC(=O)c4ccccc4)c4ccccc4)C(C)=C1C3(C)C)[C@]1(OC(C)=O)CO[C@@H]1C[C@@H]2O [Paclitaxel] (first compound max 1 µM, 7x7, partner max 3 µM)
Completion: 0.0356

Prompt: Now this one: CC(=O)c1c(C)c2cnc(Nc3ccc(N4CCNCC4)cn3)nc2n(C2CCCC2)c1=O [Palbociclib] + Cc1c2c(nn1C)CSCc1cc(n(C)n1)CSc1cc(c3ccccc3c1)OCCCc1c(C(=O)O)n(C)c3c-2c(Cl)ccc13 [AZD5991] (first compound max 10 µM, 7x7, partner max 1 µM)
Completion: -0.0186

Prompt: Now this one: O=C(c1cc(Cc2n[nH]c(=O)c3ccccc23)ccc1F)N1CCN(C(=O)C2CC2)CC1 [Olaparib] + CN(CC[C@H](CSC1=CC=CC=C1)NC2=C(C=C(C=C2)S(=O)(=O)NC(=O)C3=CC=C(C=C3)N4CCC(CC4)[C@H](C5=CC=CC=C5C6=CC=C(C=C6)Cl)O)S(=O)(=O)C(F)(F)F)CCO [AZD4320] (first compound max 10 µM, 7x7, partner max 1 µM)
Completion: -0.0399

====

system: BHT-101 (Thyroid Gland Carcinoma); experiment: combination Emax (second highest fraction inhibited in the dose matrix, 72 h); higher = more inhibition; extreme values may be limits of the assay
parameter-measured: combination Emax
# answer = number (no unit)

Prompt: Param item = Cc1c2c(nn1C)CSCc1cc(n(C)n1)CSc1cc(c3ccccc3c1)OCCCc1c(C(=O)O)n(C)c3c-2c(Cl)ccc13 [AZD5991] + Cc1cc2ncnn2cc1Nc1ncc2c(n1)n(C1CCOCC1)c(=O)n2C [AZD7648] (first compound max 1 µM, 7x7, partner max 10 µM) ; retrieve measured combination Emax.
Completion: 0.599

Prompt: Now this one: CCc1c2c(nc3ccc(O)cc13)-c1cc3c(c(=O)n1C2)COC(=O)[C@]3(O)CC [SN-38] + CN(C)CCCOc1ccc(-c2ccc3ncc4c(c3c2)n(C2CCOCC2)c(=O)n4C)cn1 [AZD0156] (first compound max 0.3 µM, 7x7, partner max 1 µM)
Completion: 0.774
